# Condition Context: pH 7.4 PBS, 37° C., 5 μM
Measurement Kind: Chemical Stability, pH 7.4

Input: Need Chemical Stability, pH 7.4, item CC(C)C(N)C(=O)N/N=C(/CO)[C@@]1(O)[C@H](C)C[C@H]2[C@@H]3CCC4=CC(=O)C=C[C@]4(C)[C@@]3(F)[C@@H](O)C[C@@]21C (single isomer, unassigned) [Compound IVA]
Output: Yes

Input: Consider the molecule shown here: CC(C)C(N)C(=O)N/N=C(/CO)[C@@]1(O)[C@H](C)C[C@H]2[C@@H]3CCC4=CC(=O)C=C[C@]4(C)[C@@]3(F)[C@@H](O)C[C@@]21C (single isomer, unassigned) [Compound IVB] What is its recorded Chemical Stability, pH 7.4?
Output: Yes

Input: Please report the recorded Chemical Stability, pH 7.4 for CC(C)C(N)C(=O)N/N=C1\C=C[C@@]2(C)C(=C1)CC[C@H]1[C@@H]3C[C@@H](C)[C@](O)(C(=O)CO)[C@@]3(C)C[C@H](O)[C@@]12F (single isomer, unassigned) [Compound VA] .
Output: Yes

Input: # Chemical Stability, pH 7.4 lookup, item C[C@@H]1C[C@H]2[C@@H]3CCC4=CC(=O)C=C[C@]4(C)[C@@]3(F)[C@@H](O)C[C@]2(C)[C@@]1(O)/C(CO)=N\NC(=O)C(N)Cc1ccccc1 (single isomer, unassigned) [Compound IIIA]
Output: Yes

Input: Consider the molecule shown here: C[C@@H]1C[C@H]2[C@@H]3CCC4=C/C(=N/NC(=O)[C@@H](N)Cc5ccccc5)C=C[C@]4(C)[C@@]3(F)[C@@H](O)C[C@]2(C)[C@@]1(O)C(=O)CO What is its recorded Chemical Stability, pH 7.4?
Output: Yes

// input: 3 molecules below; output: Chemical Stability, pH 7.4 for each
1. CCC(=O)N/N=C(\CO)[C@@]1(O)[C@H](C)C[C@H]2[C@@H]3CCC4=CC(=O)C=C[C@]4(C)[C@@]3(F)[C@@H](O)C[C@@]21C
2. CC(C)C(N)C(=O)N/N=C1\C=C[C@@]2(C)C(=C1)CC[C@H]1[C@@H]3C[C@@H](C)[C@](O)(C(=O)CO)[C@@]3(C)C[C@H](O)[C@@]12F (single isomer, unassigned) [Compound VB]
3. C[C@@H]1C[C@H]2[C@@H]3CCC4=C/C(=N\NC(=O)[C@@H](N)Cc5ccccc5)C=C[C@]4(C)[C@@]3(F)[C@@H](O)C[C@]2(C)[C@@]1(O)C(=O)CO

Output:
1: Yes; 2: Yes; 3: Yes

Parameter requested: Chemical Stability, pH 7.4. Apply to each item below.
1. CCC(=O)N/N=C1\C=C[C@@]2(C)C(=C1)CC[C@H]1[C@@H]3C[C@@H](C)[C@](O)(C(=O)CO)[C@@]3(C)C[C@H](O)[C@@]12F
2. C[C@@H]1C[C@H]2[C@@H]3CCC4=CC(=O)C=C[C@]4(C)[C@@]3(F)[C@@H](O)C[C@]2(C)[C@@]1(O)/C(CO)=N\NC(=O)C(N)Cc1ccccc1 (single isomer, unassigned) [Compound IIIB]

Output:
Yes
Yes
